testName: self-splicing fitness, log relative to wild type (ln ratio); higher = more splicing; Tetrahymena group I intron in knt gene, E. coli kanamycin selection, DiMSum; sequences stand for … in CUCUCU…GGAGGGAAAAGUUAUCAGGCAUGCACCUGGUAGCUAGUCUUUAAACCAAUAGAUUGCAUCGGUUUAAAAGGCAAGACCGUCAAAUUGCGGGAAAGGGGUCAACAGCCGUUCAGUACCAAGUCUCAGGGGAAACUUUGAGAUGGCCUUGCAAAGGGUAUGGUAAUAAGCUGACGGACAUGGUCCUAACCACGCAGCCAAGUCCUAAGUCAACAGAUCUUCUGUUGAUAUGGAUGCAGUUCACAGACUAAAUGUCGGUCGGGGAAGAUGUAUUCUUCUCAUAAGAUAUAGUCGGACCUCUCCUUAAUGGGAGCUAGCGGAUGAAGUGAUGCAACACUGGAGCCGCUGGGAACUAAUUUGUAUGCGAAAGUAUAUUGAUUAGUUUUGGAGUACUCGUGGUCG;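 note: selection with 25 µg/mL kanamycin versus none on LB agar overnight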
details: 37 °C
Please note: Satisfied applies when self-splicing fitness (ln) is -1 or greater, and Not satisfied applies otherwise.

GGAGAGCAAUAUUACGACUC	Satisfied
GGUAAGCAAUAUUACGCGGU	Satisfied
GAUGAGCAAUAUUACGCAUU	Not satisfied
CUGAAGCAAUAUUACGUAAG	Satisfied
ACCCAGCAAUAUUACGAAGU	Satisfied
GCCCAGCAAUAUUACGUGUC	Satisfied

Q: Could you verify whether the entry "CGGCAGCAAUAUUACGCUAA" shows self-splicing fitness (ln) of no less than -1?
Ans: Not satisfied

Q: Same lookup for "GUGAAGCAAUAUUACGGCUG" , please.
Ans: Satisfied

Q: Same lookup for "CAAAAGCAAUAUUACGCGGU" , please.
Ans: Not satisfied

Q: Same lookup for "GACCAGCAAUAUUACGCUGC" , please.
Ans: Not satisfied

Q: Same lookup for "UGGAAGCAAUAUUACGUCAA" , please.
Ans: Satisfied

Q: Same lookup for "CCCUAGCAAUAUUACGGCUC" , please.
Ans: Not satisfied

Q: Same lookup for "AGGUAGCAAUAUUACGAACC" , please.
Ans: Satisfied

Q: Same lookup for "CGAAAGCAAUAUUACGGUAG" , please.
Ans: Satisfied

Q: Same lookup for "UAACAGCAAUAUUACGGACA" , please.
Ans: Satisfied

Q: Same lookup for "GUCCAGCAAUAUUACGUUAG" , please.
Ans: Not satisfied

Q: Same lookup for "UAAGAGCAAUAUUACGUGCG" , please.
Ans: Satisfied

Q: Same lookup for "UAGAAGCAAUAUUACGUAGU" , please.
Ans: Not satisfied

Q: Same lookup for "AAAUAGCAAUAUUACGAAUU" , please.
Ans: Satisfied

Q: Same lookup for "GAUAAGCAAUAUUACGUUCC" , please.
Ans: Not satisfied

Q: Same lookup for "UUUGAGCAAUAUUACGUGGG" , please.
Ans: Not satisfied

Q: Same lookup for "CAUCAGCAAUAUUACGCCUC" , please.
Ans: Not satisfied

Q: Same lookup for "UCAUAGCAAUAUUACGUUAG" , please.
Ans: Not satisfied
